Tested on: NCI-H322M lung
method.notes: NCI-60 one-dose screen, 48 h (100 = growth as untreated, 0 = no growth, -100 = all killed)
recorded.conditions: 10 µM unless noted
Description: Growth inhibition of the NCI-H322M human Non-Small Cell Lung tumor cell line is measured as a screen for anti-cancer activity. Cells are grown in 96 well plates and exposed to the test compound for 48 hours. Compounds are tested at a single concentration, which is 10^-5 M for most compounds. The reported endpoint is percent growth (GI% or GIPRCNT), where numbers from 0 - 100% represent growth inhibition, and numbers from -100% - 0 represent cell death. […]
Compounds without any hit were thinned out: in the full panel of roughly 83,000, 20% have a hit.
Threshold-based label: growth under 90% gives Y, growth not under 90% gives N.

Lab note: confirm whether the reported growth for this compound is below 90%, equality not counting. compound: CCCOc1ccc(/C=N/Nc2cc(C)nc3ccc(Br)cc23)cc1 N

Consider the compound CCOC(=O)c1cc(C(=O)c2ccc(OC)cc2)n2ccc(/C=C/c3cc[n+](CC(=O)c4ccc(OC)cc4)cc3)cc12 . Is its growth strictly less than 90%? Y

I wonder whether CCOC(=O)c1nc2c3ccccc3ccn2c1C(=O)OCC has growth below 90%. Can you tell? N

Does this compound meet the criterion growth < 90%? Oc1ccc(C2c3ccccc3Oc3ccccc32)c2cccnc12 Y

Identify whether the compound N#Cc1c(NC(=O)NCc2ccccc2)sc2c1CCCCC2 records growth below 90%. Y

---

System: U251 CNS
method.notes: NCI-60 one-dose screen, 48 h (100 = growth as untreated, 0 = no growth, -100 = all killed)
recorded.conditions: 10 µM unless noted
About 83,000 compounds went through this panel and 20% of them were active in at least one assay; those are over-represented in the sample as a whole. The source made the active and inactive calls. How the source made its calls: active means growth percent below 10; inactive means the rest.
Task for the reader: assign each of the following compounds its reported growth.

Please give the measured growth for this compound: O=C1c2cccc3c(-c4ccc5c(c4)ncn5C4CCCCC4)ccc(c23)C(=O)N1c1nc2ccccc2s1 86.9% (inactive)

I'd like to know its growth. The compound in question is CC(=O)OC[C@]12CC[C@@H](C(=O)CBr)[C@@H]1[C@H]1CC[C@@H]3[C@@]4(C)CC[C@H](OC(C)=O)C(C)(C)[C@@H]4CC[C@@]3(C)[C@]1(C)CC2 96.7% (inactive)

Please look up its growth: O=C1C=CC(=O)N1c1cccc(Cl)c1 99.2% (inactive)

// growth lookup, key: COc1cc2c(=O)n(CCN(C)C)c3c4cc5c(cc4ccc3c2cc1OC)OCO5 -4.24% (active)

Would you mind telling me what growth value was observed for C=C(C)[C@@H]1CC[C@]2(C(=O)N3CCN(C)CC3)CC[C@]3(C)[C@H](CC[C@@H]4[C@@]5(C)CC[C@H](O)C(C)(C)[C@@H]5CC[C@]43C)[C@@H]12 ? -84.8% (active)

So what's the measured growth for this one? COc1ccc(-c2cnc3c(-c4cccc5ncccc45)cnn3c2)cc1 16.3% (inactive)

Given the entry Oc1c(Cl)cc(Cl)c(Cl)c1CNCCNCc1c(O)c(Cl)cc(Cl)c1Cl , report its measured growth. 10.1% (inactive)

Quick one: growth for COc1cc2oc(-c3cccc(C(=O)Nc4ccc(Br)cc4)c3)cc(=O)c2c(OC)c1OC ? 65.7% (inactive)

---

Tested on: MOLT-4 leukemia
method.notes: NCI-60 one-dose screen, 48 h
recorded.conditions: 10 µM unless noted
About 83,000 compounds went through this panel and 20% of them were active in at least one assay; those are over-represented in the sample as a whole. The source made the active and inactive calls. Rule for the calls: active = growth percent below 10; inactive = the rest.
Bench note: report the call from label 1 (active), label 0 (inactive)

Which result was noted for this compound in the test: Cc1nnc2c(Cc3ccccc3)nc3ccccc3n12 label 0

Tell me the assay call for Cc1cc2c(c(C)c1Cl)C(=O)/C(=C/c1ccc(O)c(O)c1)O2 please. label 0

Hi team, can someone confirm the assay call for COc1cc(-c2csc(NC(=O)c3cc(F)cc(C(F)(F)F)c3)n2)cc(OC)c1OC ? label 0

Lab log entry: OC(c1ccc(F)c(C(F)(F)F)c1)c1cnccc1NC1CCCCC1 (stereo not given) — outcome as called in the assay? label 0

Name the outcome recorded for COc1cc2nc(-c3ccc(Cl)cc3)cc(OCCCN3CCCCC3)c2cc1OC in the assay. label 0

// outcome(item) with item = Cc1cnc(C(=O)Nc2nc3ccc(S(=O)(=O)Nc4ccc(C(C)(C)C)cc4)cc3[nH]2)cn1 label 0

What classification did COc1ccc(-c2nc([C@@H](C)Sc3nc(N)cc(N)n3)c(C)s2)cc1OCCN1CCOCC1 end up with in this test? label 0

Which outcome was entered for the compound COc1cc(C2=C(c3cn(C)c4ccccc34)COC2=O)cc(OC)c1OC in this test? label 0

GET /call?item= Cc1cc2nc3c4ccc(Br)cc4n(CCN(C)C)c3nc2cc1C returns the recorded outcome of this test. label 1

Please state the recorded outcome for this compound: Cc1cccc(NC(=O)Nc2ccc(-n3cnc4cc(-c5ccc(O)cc5)ccc43)cc2)c1 label 0

---

Tested on: MCF7 breast
method.notes: NCI-60 one-dose screen, 48 h (100 = growth as untreated, 0 = no growth, -100 = all killed)
recorded.conditions: 10 µM unless noted
This is part of a sample that, as a whole, favours compounds with a hit. Of some 83,000 tested, about 20% had one in any assay.
Give growth for every item shown.
Provide the reading as a plain figure in %.

Looking for the measured growth of O=C(CCN1CCCC1)c1ccc([N+](=O)[O-])cc1 , can you help? 87.6

I'd like to know its growth. The compound in question is C/C(=N\Nc1cc(C)nc2ccc(Br)cc12)c1ccc([N+](=O)[O-])cc1 43.9

Item under review: COc1ccc(/C=C/c2nc(Nc3cccc(NC(C)=O)c3)c3ccccc3n2)cc1 . Reported growth? 49.9

Look at this compound and give its reported growth. Brc1ccc(Nc2csc(-c3ccccn3)n2)cc1 87.2

Report growth for O=S(=O)(NCCCNc1nccc(-c2c(-c3cccc(F)c3)nc3sccn23)n1)c1cccc2ccccc12 please. 37.4

---

Tested on: K-562 leukemia
method.notes: NCI-60 one-dose screen, 48 h
recorded.conditions: 10 µM unless noted
The panel holds about 83,000 compounds, 20% with a hit somewhere; the sample as a whole holds those more often. Activity calls are given as the source filed them. Rule for the calls: active = growth percent below 10; inactive = the rest.
Select the correct class. Options are t (active), f (inactive) and nothing else.

Returns: the outcome recorded for COc1ccc(C/C(=C(\C)c2ccc(OCCN3CCCC3)cc2)c2ccc(OCCN3CCCC3)cc2)cc1 in this assay. t

What did this assay record as the result for Nc1ccccc1NC(=O)c1ccc(-n2nc(-c3ccccc3)c3ccccc32)cc1 ? f

Test call, this compound: CNCCn1c(=O)c2cc(OC)c(OC)cc2c2ccc3cc4c(cc3c21)OCO4 t

Call for entry C/C(=N\NC(=O)CSc1nc2ccccc2c(=O)n1Cc1ccc(S(N)(=O)=O)cc1)c1ccc(F)cc1 : f

What did this assay record as the result for CN(C)c1ccc(C2C(C#N)=C(/N=C/c3ccccc3)Oc3c2ccc2ccccc32)cc1 (centres undefined) ? f

So what was the verdict on O=C(NCCNc1nccc(-c2c(-c3cccc(F)c3)nc3sccn23)n1)c1ccc(Cl)cc1 in this test? f

Hello, I am checking results. What call was entered for O=C1Nc2cc(-c3ccc(NC(=O)C4CC4)cc3)ccc2/C1=C/c1ccc[nH]1 ? f

What classification did COc1cc2nc(-c3ccc(C(F)(F)F)cc3)cc(OCCCN3CCCC3)c2cc1OC end up with in this test? f

Outcome? CN(C)CCC(=O)c1ccc([N+](=O)[O-])cc1 f

---

Tested on: UACC-62 melanoma
method.notes: NCI-60 one-dose screen, 48 h (100 = growth as untreated, 0 = no growth, -100 = all killed)
recorded.conditions: 10 µM unless noted
Compounds without any hit were thinned out: in the full panel of roughly 83,000, 20% have a hit.
recorded.metric: growth (%)
Only the number, expressed in %, is required.

Would you mind telling me what growth value was observed for Cc1ccc(NS(=O)(=O)c2ccc(-c3cnc(C4CC4)o3)cc2)cc1C(F)(F)F ? 47.3

Query: growth; subject: O=C(c1ccccc1)N1N=C(c2ccc(-n3ccc(C(F)(F)F)n3)c(F)c2)CC1c1ccc[nH]1 (stereo not given) 101

Consider the compound shown here: COc1ccc(C(C)=O)c(OC)c1 What is its recorded growth? 96.1

Data request, read-out growth, for O=C1Nc2ccccc2/C1=C\c1c(-c2ccccc2)nc2ccccn12 33.4

What value of measured growth is listed for Cn1cc(-c2nc(-c3c[nH]c4c(Cl)nccc34)cs2)c2cc(F)ccc21 ? 97.5

Fill in the blank: the reported growth of CN1C(=O)NC(c2ccc3c(c2)OCO3)C=C1c1ccccc1 (stereo not given) is ____. 89.8

# lookup: growth of N=C1C(c2nc3ccccc3s2)=C(O)CN1c1cc(Cl)cc(Cl)c1 78.1

// returns reported growth for input C=C1C(=O)O[C@H]2[C@H]1CC/C(CNC(=O)/C=C/c1cccc(OC)c1)=C\CC[C@@]1(C)O[C@@H]21 -26.6

Name the reported growth value associated with the compound Cc1ccc(NC(C(=O)c2ccccc2)c2ccccc2)cc1 (stereo not given) 39.1

Which growth is reported for this compound? COc1ccccc1NS(=O)(=O)c1cccc(C(=O)Nc2ccc(Br)cc2)c1 32.1
